# reported Emax; entries follow
target.system: M2 muscarinic receptor (Homo sapiens, UniProt P08172)
Construct: expressed in transfected cells; host or cells: CHO (M2-CHO)
Sequence (P08172 1-466): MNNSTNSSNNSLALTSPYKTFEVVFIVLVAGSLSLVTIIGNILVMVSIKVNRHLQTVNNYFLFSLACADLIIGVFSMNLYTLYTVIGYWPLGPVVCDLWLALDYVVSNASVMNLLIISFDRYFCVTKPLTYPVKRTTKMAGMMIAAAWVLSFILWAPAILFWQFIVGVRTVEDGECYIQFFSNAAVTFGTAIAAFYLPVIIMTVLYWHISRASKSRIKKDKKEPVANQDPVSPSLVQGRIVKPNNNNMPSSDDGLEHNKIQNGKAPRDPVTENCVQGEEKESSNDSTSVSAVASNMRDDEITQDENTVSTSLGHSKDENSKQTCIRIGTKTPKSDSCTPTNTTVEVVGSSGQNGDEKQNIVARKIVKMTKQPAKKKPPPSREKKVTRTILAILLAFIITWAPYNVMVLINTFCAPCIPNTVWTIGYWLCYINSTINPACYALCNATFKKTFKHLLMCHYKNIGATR
test.name: Functional mobilization of intracellular calcium (FLIPR), M2-CHO cells
Type: cell-based
measurement.context: 100% efficacy = maximum response obtained with the Carbachol control

Below, each entry is followed by its recorded Emax result.
- compound: "COc1ccc(-c2ccc(F)cc2F)cc1C1CCN([C@H]2C[C@H]3CC[C@H]2C3)CC1"
  target.system: "M2 muscarinic receptor (Homo sapiens, UniProt P08172)"
  value.observed: "< 25%"
- compound: "CCOC(=O)N1CCC(N2CCC(O)(c3cc(Cl)ccc3OC)CC2)CC1"
  target.system: "M2 muscarinic receptor (Homo sapiens, UniProt P08172)"
  value.observed: "< 25%"
- compound: "COc1ccccc1C1(C#N)CCN(C2CCC3CCC2C3)CC1 (stereo not shown)"
  target.system: "M2 muscarinic receptor (Homo sapiens, UniProt P08172)"
  value.observed: "25 to 100%"

(Q) Please list Emax recorded for the compound COc1ccc(C#CC2(O)CCCC2)cc1C1CCN([C@H]2C[C@H]3CC[C@H]2C3)CC1
(A) < 25%

(Q) Fill in reported Emax for this entry: CCOC(=O)N1CCC(CN2CCC(c3cc(-c4ccc(C(=O)NC)c(Cl)c4)ccc3OC)CC2)CC1
(A) < 25%

(Q) Please supply the value of reported Emax for the item COc1ccccc1C1CC2CCC(C1)N2C1CCOCC1 (stereo not shown)
(A) < 25%

(Q) State its Emax: CCOC(=O)N1CCC(CN2CCC(F)(c3cc(Cl)ccc3OC)CC2)CC1
(A) 25 to 100%

---

target.system: M1 muscarinic receptor (Homo sapiens, UniProt P11229)
Construct: expressed in transfected cells; host or cells: CHO (M1-CHO)
Sequence (P11229 whole entry): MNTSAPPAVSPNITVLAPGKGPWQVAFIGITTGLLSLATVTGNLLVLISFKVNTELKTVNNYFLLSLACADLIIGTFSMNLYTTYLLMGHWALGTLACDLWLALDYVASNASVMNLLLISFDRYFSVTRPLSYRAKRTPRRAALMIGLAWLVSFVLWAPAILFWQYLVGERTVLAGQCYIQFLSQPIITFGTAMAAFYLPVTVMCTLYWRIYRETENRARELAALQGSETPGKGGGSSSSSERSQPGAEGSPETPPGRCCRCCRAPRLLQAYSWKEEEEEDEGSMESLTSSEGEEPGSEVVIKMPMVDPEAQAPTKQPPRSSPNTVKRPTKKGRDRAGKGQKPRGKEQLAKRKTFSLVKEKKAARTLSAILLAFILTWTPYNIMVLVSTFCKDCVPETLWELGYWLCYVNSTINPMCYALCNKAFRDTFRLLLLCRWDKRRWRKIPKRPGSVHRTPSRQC
test.name: Functional mobilization of intracellular calcium (FLIPR), M1-CHO cells
Format: cell-based
measurement.context: 100% efficacy = maximum response obtained with the Carbachol control
endpoint: Emax

- molecule: "COc1ccc(C#Cc2ccccc2)cc1C1CCN(C2CC3CC[C@H]2C3)CC1 (stereo in doubt)"
  Emax: "25 to 100%"
- molecule: "COC(=O)c1ccc(-c2ccccc2C2CCN([C@H]3C[C@H]4CC[C@H]3C4)CC2)cc1"
  Emax: "25 to 100%"
- molecule: "CCOC(=O)N1CCC(CN2CCC(O)(c3cc(F)ccc3OC)CC2)CC1"
  Emax: "25 to 100%"
- molecule: "CCOC(=O)N1C2CCC1CC(N1CCC(c3cc(-c4ccc(CC#N)cc4)ccc3OC)CC1)C2 (stereo not drawn)"
  Emax: "25 to 100%"

(Q) Recall and state the measured Emax for Cc1ccc(C(F)(F)F)cc1C1CCN(C2C[C@H]3CC[C@H]2C3)CC1 (stereo partly drawn) .
(A) 25 to 100%

(Q) Give a short answer stating reported Emax for CCOC(=O)N1CCC(CN2CCC(c3ccccc3OC(F)(F)F)CC2)CC1 .
(A) 25 to 100%

(Q) State its Emax: COc1ccc(-c2ccccc2F)cc1C1CCN([C@H]2C[C@H]3CC[C@H]2C3)CC1
(A) < 25%

(Q) State its Emax for this molecule: COc1ccc(Cl)cc1C1CCN(C2CCCCC2)CC1
(A) 25 to 100%

(Q) Output measured Emax for this item: COc1ccc(-c2ccc3c(c2)OCO3)cc1C1CCN(C2C[C@@H]3CC[C@@H]2C3)CC1 (stereo partly drawn)
(A) 25 to 100%

(Q) Answer with the recorded Emax for the molecule listed here: CNC(=O)c1ccc(-c2ccc(OC)c(C3CCN(C4CCCCC4)CC3)c2)cc1Cl
(A) < 25%

(Q) State its Emax for this molecule: COc1ccccc1C1(C#N)CCN(C2CCC3CCC2C3)CC1 (stereo not drawn)
(A) 25 to 100%

(Q) Identify measured Emax corresponding to CCOC(=O)N1C2CCC1CC(N1CCC(OC)(c3cc(F)ccc3OC)CC1)C2 (stereo not drawn)
(A) 25 to 100%

(Q) Quote Emax reported for COc1ccc(C2CCN(C3C[C@H]4CC[C@H](C3)C4)CC2)c(C)c1 (stereo partly drawn) please.
(A) < 25%

(Q) Kindly indicate its recorded Emax. Item: CCOC(=O)N1CCC(CN2CCC(OC)(c3cc(F)ccc3OC)CC2)CC1
(A) 25 to 100%

(Q) Given COc1ccc(Cl)cc1C1CCN(C2CC3CCC2C3)CC1 (stereo not drawn) , respond with its Emax.
(A) 25 to 100%

(Q) Write down Emax measured for item Cc1ccccc1C1(O)CCN(CC2CC3C=CC2C3)CC1 (stereo not drawn)
(A) 25 to 100%

(Q) Note down Emax recorded for COc1ccccc1C1CCN(C2CCN(C(=O)c3ccccc3)CC2)CC1
(A) < 25%

(Q) For the molecule COC(=O)CC1CCCC(N2CCC(c3ccccc3OC)CC2)C1 (stereo not drawn) , give its measured Emax value.
(A) 25 to 100%

(Q) For the molecule COc1ccc(C(=O)C2CC2)cc1C1CCN([C@H]2C[C@H]3CC[C@H]2C3)CC1 , report Emax.
(A) < 25%
